assay: qHTS of pediatric cancer cell lines to identify multiple opportunities for drug repurposing: Primary screen for control Hh wild type fibroblast cells (AID 1347106); details: Hh wild-type fibroblast viability, CellTiter-Glo luminescence, 48 h; series mostly up to 46 µM; further: nearly all actives have a fitted effect of over 55% in size
Records with an inconclusive call do not appear. Calls of active or inactive are those of the source. The call rests on the fitted dose curve; in most records, active means well fitted cell-killing curve with a large enough effect; inconclusive means small, poorly fitted or top-dose-only effect; inactive means flat fitted curve, though single readings scatter.
Reply using exactly one outcome from class 1 = active, class 0 = inactive

Name the outcome recorded for CC(=O)CCCCn1c(=O)c2c(ncn2C)n(C)c1=O in the assay.
class 0

Record request — test call for C[N+](C)(C)CC(=O)O
class 0

Short answer needed: outcome of this test for O=C(OCC#CCSc1nnc(-c2cccc3ccccc23)o1)c1cc2ccccc2s1 ?
class 0

State the result this test recorded for O=c1cc(-c2ccccc2)oc2cc(O)cc(O)c12 .
class 0

How did this test come out for Cc1ccccc1C(C(=O)NC1CCCCC1)N(C(=O)Cn1ccnc1C)c1cccc(F)c1 (centres undefined) ?
class 0

Per the records of this test, what outcome belongs to CC1(C)CCC[C@@]2(C)[C@@H]1CC[C@@]1(C)OC(=O)C[C@H]21 ?
class 0

Short answer needed: outcome of this test for COc1ccc(C2Sc3ccccc3N(CCN(C)C)C(=O)C2OC(C)=O)cc1 (centres undefined) ?
class 0

Dear colleague, could you share the recorded outcome for Cc1nc(N)sc1-c1ccnc(Nc2ccc(N3CCOCC3)cc2)n1 when you have a moment?
class 1

Called result for O=c1c(O)c(-c2ccc(O)cc2)oc2cc(O)cc(O)c12
class 0

Kindly provide the recorded test outcome for the following compound: COc1ccc(-c2coc3cc(O)cc(O)c3c2=O)cc1
class 0

What call does the record list for CNC(=O)c1ccc2cc(C3(O)CCn4cncc43)ccc2c1 (centres undefined) ?
class 0

# fetch the recorded call for Cc1ccc(/C=N/NC(=O)c2ccccc2Oc2ccccc2)o1 here
class 0

So what was the verdict on c1ccc2c(Cc3c[nH]c4ccccc34)c[nH]c2c1 in this test?
class 1

Look up the recorded call for COCCCCC(=NOCCN)c1ccc(C(F)(F)F)cc1 in this test.
class 0

Identify the outcome logged in this assay for the compound shown: CO[C@H]1C=CO[C@@]2(C)Oc3c(C)c(O)c4c(O)c(c5c(c4c3C2=O)NC2(CCN(CC(C)C)CC2)N=5)=NC(=O)C(C)=CC=C[C@H](C)[C@H](O)[C@@H](C)[C@@H](O)[C@@H](C)[C@H](OC(C)=O)[C@H]1C
class 0

What classification did COc1cc2nc(-c3ccc(N4CCN(C)CC4)cc3)nc(NCCN3CCOCC3)c2cc1OC end up with in this test?
class 1

Recorded test outcome, item COCCOC(=O)C1=C(C)NC2=C(C(=O)CC(c3ccccc3OC)C2)C1c1cccc(O)c1 (centres undefined)
class 0

# outcome recorded in this test, key = CN(C)CCC(c1ccccc1)c1ccccn1 (centres undefined)
class 0

How was CCN(CC)CCNC(=O)c1ccc(N)cc1 classified in this test?
class 0

How did this test come out for O=C1c2c(O)cc(O)cc2O[C@H](c2cc(O)c(O)c(O)c2)[C@H]1O ?
class 0

Could you check what this test reported for CC[C@@]1(O)C[C@H](O[C@H]2C[C@H](N(C)C)[C@H](O[C@H]3C[C@H](O)[C@H](O[C@H]4CCC(=O)[C@H](C)O4)[C@H](C)O3)[C@H](C)O2)c2c(cc3c(c2O)C(=O)c2c(O)cccc2C3=O)[C@@H]1C(=O)OC ?
class 0

Which outcome did this test record for the compound NC(=O)c1cccc2[nH]c(-c3ccc([C@H]4CCCN4)cc3F)nc12 ?
class 0

What outcome does the record of this test show for CCCCCCCCCCCC1=C(O)C(=O)C=C(O)C1=O ?
class 0

What call does the record list for COC(=O)[C@@H]1[C@H]2C[C@H]3c4[nH]c5ccccc5c4CCN3C[C@@H]2CC[C@@H]1O ?
class 0

Answer briefly: the call reported for CO[C@H]1C[C@@H]2CC[C@@H](C)[C@@](O)(O2)C(=O)C(=O)N2CCCC[C@@H]2C(=O)O[C@H]([C@H](C)C[C@@H]2CC[C@H](OP(C)(C)=O)[C@H](OC)C2)CC(=O)[C@H](C)C=C(C)[C@@H](O)[C@@H](OC)C(=O)[C@H](C)C[C@H](C)C=CC=CC=C1C in this assay.
class 0

Lab log entry: CCc1ccc(OCc2ccccc2C(=O)Nc2ccc3nc(C)cc(N)c3c2)cc1 — outcome as called in the assay?
class 1

Can you look up the reported call for Clc1ccc(Cn2c(CN3CCCC3)nc3ccccc32)cc1 for me?
class 0

Recorded call for O=C(O)C(O)Cc1ccc(O)c(O)c1 (centres undefined) ?
class 0

For this compound, state the assay outcome: O=C(NCCN1CCOCC1)c1ccc(Cl)cc1
class 0

Recorded test outcome, item Cc1ccc(C(C)(O)c2nc3ccccc3s2)c(C)c1 (centres undefined)
class 0

Could you please tell me the result logged for C[C@@H](O)[C@H]1C(=O)N2C(C(=O)O)=C(S[C@@H]3CN[C@H](C(=O)N(C)C)C3)[C@H](C)[C@H]12 in this assay?
class 0

Test call, this compound: C=CCc1ccc(O)c(-c2ccc(O)c(CC=C)c2)c1
class 0

Field: outcome | Entry: COC1CCC(N(C(=O)C2CCC(C)CC2)c2cc(C3=CCCCC3)sc2C(=O)O)CC1 (centres undefined)
class 0

I'd appreciate the recorded outcome for CC1CCC(C(=O)N(c2cc(C#CC(C)(C)C)sc2C(=O)O)C2CCC(O)CC2)CC1 (centres undefined) from this test.
class 0

Hi, sorry to bother you, what did the test record for CN1C[C@H]2c3ccccc3Oc3ccc(Cl)cc3[C@@H]2C1 ?
class 0

Identify the outcome logged in this assay for the compound shown: c1ccc2c(-c3cnn4cc(-c5ccc(N6CCNCC6)cc5)cnc34)ccnc2c1
class 1

Identify the outcome logged in this assay for the compound shown: Cc1ccn(-c2ccc(-c3ncco3)cc2)c(=O)c1-c1ccc2nc(N)ncc2c1
class 0

For NC(=O)c1cccc(-c2cc(Nc3ccc(OC(F)(F)F)cc3)ncn2)c1 , what call appears in the results of this test?
class 0

Query: recorded result category for CC(=O)O[C@]1(C(C)=O)CC[C@H]2[C@@H]3C=C(Cl)C4=CC(=O)[C@@H]5C[C@@H]5[C@]4(C)[C@H]3CC[C@@]21C in this test
class 0

----------
test system: HB3; assay: qHTS profiling for inhibitors of Plasmodium falciparum proliferation (AID 504749); further: nearly all actives have a fitted effect of over 60% in size; details: P. falciparum in erythrocytes, SYBR Green DNA, 72 h; series mostly up to 28.7 µM
Records with an inconclusive call do not appear. Active and inactive are the calls of the source. The call rests on the fitted dose curve; in most records, active means well fitted inhibition curve with a large enough effect; inconclusive means small, poorly fitted or top-dose-only effect; inactive means flat fitted curve, though single readings scatter.
API: response.call in active, inactive

Given Clc1ccc(Cn2c(CN3CCCC3)nc3ccccc32)cc1 , state the outcome it received in this test.
inactive

Dear colleague, could you share the recorded outcome for Cc1cnc(C(=O)O)c[n+]1[O-] when you have a moment?
inactive

Recorded test outcome, item CCN(CC)C(=O)c1ccc(O)c(OC)c1
inactive

Which outcome did this test record for the compound NCCS ?
inactive

Answer briefly: the call reported for O=C(O)Cc1cccc2ccccc12 in this assay.
inactive

# outcome recorded in this test, key = COc1ccc(Cc2nccc3cc(OC)c(OC)cc23)cc1OC
inactive

Entry CCCNC(=O)NS(=O)(=O)c1ccc(Cl)cc1 : call = ?
inactive

Short answer needed: outcome of this test for Cc1cccc(C)c1OCC(C)N (stereo not drawn) ?
inactive

What outcome does the record of this test show for CCCCC1C(=O)N(c2ccccc2)N(c2ccccc2)C1=O ?
inactive

Given CCCCCN(C)CCC(O)(P(=O)(O)O)P(=O)(O)O , state the outcome it received in this test.
inactive

Please indicate how the test categorized CC1=C(/C=C/C(C)=C/C=C/C(C)=C/C(=O)Nc2ccc(O)cc2)C(C)(C)CCC1 .
active

Each compound tested received a call. Report the one for CC(=O)c1ccc(S(=O)(=O)NC(=O)NC2CCCCC2)cc1 .
inactive

Call for entry O=C(NCCN1CCOCC1)c1ccc(Cl)cc1 :
inactive

----------
assay: qHTS of pediatric cancer cell lines to identify multiple opportunities for drug repurposing: Confirmatory screen for Rh30 cells (AID 1347126); settings: Rh30 rhabdomyosarcoma cell viability; series mostly up to 45.9 µM; further: nearly all actives have a fitted effect of over 55% in size
Results filed as inconclusive are left out. Calls of active or inactive are those of the source. Calls follow the shape of the dose curve; as a rule, active = well fitted cell-killing curve with a large enough effect; inconclusive = small, poorly fitted or top-dose-only effect, or effect the other way; inactive = no such curve, though single readings can be large or run the other way.
Entry note: the call must match one of label 1 for active, label 0 for inactive

For OC[C@H]1O[C@@H](n2cnc3c2NC=NC[C@@H]3O)C[C@H]1O , what call appears in the results of this test?
label 0

GET /call?item= CN[C@@H](C)C(=O)N[C@H]1CN(C(=O)CC(C)C)CC[C@H]2CC[C@@H](C(=O)NC(c3ccccc3)c3ccccc3)N2C1=O returns the recorded outcome of this test.
label 0

Please indicate how the test categorized COc1ncc(-c2ccc3nccc(-c4ccnnc4)c3c2)cc1NS(=O)(=O)c1ccc(F)cc1F .
label 1

Dear all, I need the recorded test outcome for COc1ccc(-c2nc(N3CCOCC3)c3sc(CN(C)c4ncc(C(=O)NO)cn4)cc3n2)cn1 , thank you.
label 1

Tell me the assay call for CO[C@H]1C[C@@H]2CC[C@@H](C)[C@@](O)(O2)C(=O)C(=O)N2CCCC[C@@H]2C(=O)O[C@H]([C@H](C)C[C@@H]2CC[C@H](OCCO)[C@H](OC)C2)CC(=O)[C@H](C)C=C(C)[C@@H](O)[C@@H](OC)C(=O)[C@H](C)C[C@H](C)C=CC=CC=C1C please.
label 0

Please indicate how the test categorized O=c1[nH]cnc2c1ncn2[C@H]1CC[C@@H](CO)O1 .
label 0

Recorded call for CC1(C)CCC[C@@]2(C)[C@@H]1CC[C@@]1(C)OC(=O)C[C@H]21 ?
label 1

Record lookup: outcome of this test for CC(=O)Nc1ccc([C@H](C)C(=O)Nc2ncc(C(C)C)s2)cc1 ?
label 1

Which outcome was assigned to O=C(Nc1cccc(Br)c1)c1cccc(S(=O)(=O)N2CCCCCC2)c1 in this test?
label 0

For CC1(C)CCC2=C(O1)c1ccccc1C(=O)C2=O , what call appears in the results of this test?
label 1

Entry COc1cc2ncnc(Nc3ccc(F)c(Cl)c3)c2cc1OCCCN1CCOCC1 : call = ?
label 1

Given CC1(C)CCC(CN2CCN(c3ccc(C(=O)NS(=O)(=O)c4ccc(NCC5CCOCC5)c([N+](=O)[O-])c4)c(Oc4cnc5[nH]ccc5c4)c3)CC2)=C(c2ccc(Cl)cc2)C1 , state the outcome it received in this test.
label 0

Which outcome did this test record for the compound CC(C)(C(=O)NCC(F)(F)C(F)(F)F)C(=O)N[C@@H]1C(=O)Nc2ccccc2-c2ccccc21 ?
label 0

I'd appreciate the recorded outcome for CCCCCCCCCCCC1=C(O)C(=O)C=C(O)C1=O from this test.
label 0

Hi, do you know how O=C(O)c1ccc(-c2c[nH]c3ncc(-c4ccccc4)cc23)cc1C1CCCC1 came out in this test?
label 0

Dear colleague, could you share the recorded outcome for CNC1CCC(N(Cc2cccc(-c3ccncc3)c2)C(=O)c2sc3c(F)ccc(F)c3c2Cl)CC1 (stereo unspecified) when you have a moment?
label 1

I'd appreciate the recorded outcome for CC1(C)S[C@H]2[C@H](NC(=O)[C@@H](N)c3ccc(O)cc3)C(=O)N2[C@@H]1C(=O)O from this test.
label 0

Could you check what this test reported for CC(=O)Oc1cc2c(s1)CCN(C(C(=O)C1CC1)c1ccccc1F)C2 (stereo unspecified) ?
label 1

Called result for CC(C)n1nc(-c2ccc3oc(N)nc3c2)c2c(N)ncnc21
label 1

What call does the record list for CO[C@H]1C[C@@H]2CC[C@@H](C)[C@@](O)(O2)C(=O)C(=O)N2CCCC[C@@H]2C(=O)O[C@H]([C@H](C)C[C@@H]2CC[C@H](OP(C)(C)=O)[C@H](OC)C2)CC(=O)[C@H](C)C=C(C)[C@@H](O)[C@@H](OC)C(=O)[C@H](C)C[C@H](C)C=CC=CC=C1C ?
label 1

I would be grateful if you could indicate the recorded call for NC1=N[C@@]2(c3cc(NC(=O)c4ccc(F)cn4)ccc3F)COC[C@@H]2CS1 .
label 0

Data provenance is PubChem BioAssay (NCATS).
